experiment summary: Half-life for disappearance of compound from rabbit 10% brain homogenate
Format: ADME, Oryctolagus cuniculus
Classify as follows. Reported half-life greater than or equal to 5 min: criterion met. Reported half-life below: criterion not met.

Prompt line: hey, is half-life for this one >= 5 min? C[n+]1cccc(C(=O)NCCOC(=O)C2N3C(=O)C(NC(=O)Cc4ccccc4)C3SC2(C)C)c1.[I-] (stereo unspecified)
Response line: criterion met

Prompt line: I'd appreciate it if you could say whether CN1C=CCC(C(=O)OCOC(=O)C2N3C(=O)C(NC(=O)Cc4ccccc4)C3SC2(C)C)=C1 (stereo unspecified) has half-life at least equal to 5 min.
Response line: criterion not met

Prompt line: I'd appreciate it if you could say whether C[n+]1cccc(C(=O)OCCOC(=O)C2N3C(=O)C(NC(=O)Cc4ccccc4)C3SC2(C)C)c1.[I-] (stereo unspecified) has half-life at least equal to 5 min.
Response line: criterion met

Prompt line: Decide: half-life of C[n+]1cccc(C(=O)OCOC(=O)C2N3C(=O)C(NC(=O)Cc4ccccc4)C3SC2(C)C)c1.[I-] (stereo unspecified) >= 5 min?
Response line: criterion not met

Prompt line: Form field: half-life at least 5 min? Entry: CN1C=CCC(C(=O)OCCOC(=O)C2N3C(=O)C(NC(=O)Cc4ccccc4)C3SC2(C)C)=C1 (stereo unspecified)
Response line: criterion not met

Prompt line: Hello, I need to know if CN1C=CCC(C(=O)NCCOC(=O)C2N3C(=O)C(NC(=O)Cc4ccccc4)C3SC2(C)C)=C1 (stereo unspecified) has measured half-life not below 5 min. Thanks!
Response line: criterion not met
